Data provenance is patent US11524962B2.

# Tested on: Granta-519 cells
# method: Cell proliferation assay in Granta-519 cells
# Assay type: cell-based
# condition parameters: Homo sapiens, Granta-519; initial testing; read-out: Prolif_(Granta) IC50
parameter: pIC50
Numbers only, as −log10 of the molar value.

Recall the reported pIC50 of `C[C@@](O)(c1ccc2c(c1)CC2)[C@H]1O[C@@H](n2ccc3c(N)ncnc32)[C@H](O)[C@@H]1O` on Granta-519 cells and write it down.
7.55

---

# test system: PRMT5/MEP50 complex (Homo sapiens (Human), UniProt O14744)
# Sequence (O14744 whole entry): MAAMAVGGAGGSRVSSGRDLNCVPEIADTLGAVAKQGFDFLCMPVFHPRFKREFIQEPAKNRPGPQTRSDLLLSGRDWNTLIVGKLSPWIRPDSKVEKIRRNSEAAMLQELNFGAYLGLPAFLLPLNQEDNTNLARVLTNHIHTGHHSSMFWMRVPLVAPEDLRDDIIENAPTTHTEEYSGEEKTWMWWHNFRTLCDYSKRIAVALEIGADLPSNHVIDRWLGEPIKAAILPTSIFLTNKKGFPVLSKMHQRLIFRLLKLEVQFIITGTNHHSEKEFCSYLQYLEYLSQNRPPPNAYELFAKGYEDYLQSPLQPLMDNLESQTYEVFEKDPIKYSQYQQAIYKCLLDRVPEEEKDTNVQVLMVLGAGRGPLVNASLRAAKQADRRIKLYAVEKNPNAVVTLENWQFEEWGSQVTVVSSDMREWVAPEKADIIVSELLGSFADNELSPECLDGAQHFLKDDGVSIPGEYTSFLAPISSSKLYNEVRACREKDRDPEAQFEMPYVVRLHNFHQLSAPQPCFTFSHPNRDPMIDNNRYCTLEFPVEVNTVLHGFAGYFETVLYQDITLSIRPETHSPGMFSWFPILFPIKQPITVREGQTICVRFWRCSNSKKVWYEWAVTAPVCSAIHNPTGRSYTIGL
# Sequence (Q9BQA1 whole entry partner): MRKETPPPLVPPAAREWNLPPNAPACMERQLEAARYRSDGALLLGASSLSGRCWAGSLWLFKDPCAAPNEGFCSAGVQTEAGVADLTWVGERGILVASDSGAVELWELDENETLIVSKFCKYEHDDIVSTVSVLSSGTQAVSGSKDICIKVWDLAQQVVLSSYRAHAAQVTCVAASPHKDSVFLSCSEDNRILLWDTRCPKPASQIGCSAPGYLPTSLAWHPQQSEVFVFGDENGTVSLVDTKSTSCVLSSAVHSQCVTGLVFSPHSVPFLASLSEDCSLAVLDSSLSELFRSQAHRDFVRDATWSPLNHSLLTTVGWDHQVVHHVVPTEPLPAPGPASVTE
# method: Flash plate assay
# Format: biochemical
# condition parameters: read-out: Flash Plate IC50
Parameter class (string): assigned from measured IC50. Ranges: bucket 1 = under 20 nM, bucket 2 = from 20 nM up to 200 nM, bucket 3 = 200 nM and over

Class for C=C(C)c1ncnc2c1ccn2[C@@H]1O[C@H]([C@H](O)c2ccc3c(c2)CC3)[C@@H](O)[C@H]1O [Example 40] ?
bucket 3

Input CO/N=c1\[nH]cnc2c1ccn2[C@@H]1O[C@H]([C@H](O)c2ccc3c(c2)CC3)[C@@H](O)[C@H]1O [Example 20] ; output its category
bucket 2

Class for Nc1ncnc2c1ccn2[C@@H]1O[C@H]([C@H](O)c2ccc3c(c2)CCC3)[C@@H](O)[C@H]1O [Example 45] ?
bucket 1

# classify by IC50 band: Cc1ncnc2c1ccn2[C@@H]1O[C@H]([C@H](O)c2ccc3c(c2)CC3)[C@@H](O)[C@H]1O [Example 11]
bucket 1

# classify by IC50 band: CCO/N=c1\[nH]cnc2c1ccn2[C@@H]1O[C@H]([C@](C)(O)c2ccc3c(c2)CC3)[C@@H](O)[C@H]1O [Example 22]
bucket 2

---

# test system: PRMT5/MEP50 complex (Homo sapiens (Human))
# method: Flash plate assay
# Type: biochemical
# condition parameters: read-out: Flash Plate IC50
// NB: equality with 200 nM counts as 0.0; only IC50 strictly below is 1.0

Regarding `Cc1ncnc2c1ccn2[C@@H]1O[C@H]([C@@H](O)c2ccc3c(c2)CC3)[C@@H](O)[C@H]1O` , kindly confirm whether its IC50 is beneath 200 nM.
0.0

A record lists `Nc1ncnc2c1ccn2[C@@H]1O[C@H]([C@H](O)c2ccc3c(c2)OCC3)[C@@H](O)[C@H]1O` . Is its IC50 below 200 nM?
1.0

Dear reviewer, please state whether `O[C@@H]1[C@H](O)[C@@H]([C@H](O)c2ccc3c(c2)CC3)O[C@H]1n1ccc2c(CF)ncnc21` has IC50 strictly beneath 200 nM.
1.0

Strictly below 200 nM in IC50? `C[C@@](O)(c1ccc2c(c1)CC2)[C@H]1O[C@@H](n2ccc3c(N)ncnc32)[C@H](O)[C@@H]1O`
1.0

Does the reported IC50 of `OCc1ncnc2c1ccn2[C@@H]1O[C@H]([C@H](O)c2ccc3c(c2)CC3)[C@@H](O)[C@H]1O` stay below 200 nM?
1.0

Does the reported IC50 of `Cc1ncnc2c1ccn2[C@@H]1O[C@H]([C@](C)(O)c2ccc3c(c2)CC3)[C@@H](O)[C@H]1O` stay below 200 nM?
1.0

Consider `C[C@](O)(c1ccc2c(c1)CC2)[C@H]1O[C@@H](n2ccc3c(N)ncnc32)[C@H](O)[C@@H]1O` . Does its IC50 lie strictly below 200 nM?
0.0

# strict comparison: is reported IC50 < 200 nM? input = `CCO/N=c1\[nH]cnc2c1ccn2[C@@H]1O[C@H]([C@H](O)c2ccc3c(c2)CC3)[C@@H](O)[C@H]1O`
1.0

Please indicate whether the reported IC50 of `COc1ncnc2c1ccn2[C@@H]1O[C@H]([C@H](O)c2ccc3c(c2)CC3)[C@@H](O)[C@H]1O` is strictly below 200 nM.
0.0

# TODO verify IC50 < 200 nM strictly for this compound: `O[C@@H]1[C@H](O)[C@@H]([C@H](O)c2ccc3c(c2)CC3)O[C@H]1n1ccc2c(Cl)ncnc21`
1.0

Does this compound meet the criterion IC50 < 200 nM? `COCCc1ncnc2c1ccn2[C@@H]1O[C@H]([C@H](O)c2ccc3c(c2)CC3)[C@@H](O)[C@H]1O`
1.0

Please check: IC50 for `O[C@@H]1[C@H](O)[C@@H]([C@H](O)c2ccc3c(c2)CC3)O[C@H]1n1ccc2c(CCl)ncnc21` , strictly under 200 nM or not?
1.0

# strict comparison: is reported IC50 < 200 nM? input = `Nc1ncnc2c1c(Br)cn2[C@@H]1O[C@H]([C@H](O)c2ccc3c(c2)CC3)[C@@H](O)[C@H]1O`
1.0

Strictly below 200 nM in IC50? `OCCc1ncnc2c1ccn2[C@@H]1O[C@H]([C@H](O)c2ccc3c(c2)CC3)[C@@H](O)[C@H]1O`
1.0
